Each recorded value in this set is attributed to ChEMBL document CHEMBL1149464.

target: UniProt:P62508
endpoint name: IC50 (nM)

Before answering, review these 6 worked examples.
CN(C)CCOc1ccc(/C(=C(/CCN=[N+]=[N-])c2ccccc2)c2ccc(O)cc2)cc1; 5
CN(C)CCOc1ccc(/C(=C(/CCCl)c2ccccc2)c2ccc(O)cc2)cc1 [4-HYDROXYTORMIFENE]; 13
CN(C)CCOc1ccc(/C(=C(/CCC#N)c2ccccc2)c2ccc(O)cc2)cc1; 1300
CN(C)CCOc1ccc(/C(=C(/CCCC#N)c2ccccc2)c2ccc(O)cc2)cc1; 200
CSCCC/C(=C(\c1ccc(O)cc1)c1ccc(OCCN(C)C)cc1)c1ccccc1; 1000
CN(C)CCOc1ccc(/C(=C(/CCCCl)c2ccccc2)c2ccc(O)cc2)cc1; 130

[A] CN(C)CCOc1ccc(/C(=C(/CCCCO)c2ccccc2)c2ccc(O)cc2)cc1
[B] CN(C)CCOc1ccc(/C(=C(/CCCN=[N+]=[N-])c2ccccc2)c2ccc(O)cc2)cc1
Prompt: Between A and B , whose recorded IC50 is greater? Mark your selection by writing its label.
Response: A
(A: 790 nM, B: 160 nM)

* * *

Molecular target: UniProt:P03372
Sequence (P03372 whole entry): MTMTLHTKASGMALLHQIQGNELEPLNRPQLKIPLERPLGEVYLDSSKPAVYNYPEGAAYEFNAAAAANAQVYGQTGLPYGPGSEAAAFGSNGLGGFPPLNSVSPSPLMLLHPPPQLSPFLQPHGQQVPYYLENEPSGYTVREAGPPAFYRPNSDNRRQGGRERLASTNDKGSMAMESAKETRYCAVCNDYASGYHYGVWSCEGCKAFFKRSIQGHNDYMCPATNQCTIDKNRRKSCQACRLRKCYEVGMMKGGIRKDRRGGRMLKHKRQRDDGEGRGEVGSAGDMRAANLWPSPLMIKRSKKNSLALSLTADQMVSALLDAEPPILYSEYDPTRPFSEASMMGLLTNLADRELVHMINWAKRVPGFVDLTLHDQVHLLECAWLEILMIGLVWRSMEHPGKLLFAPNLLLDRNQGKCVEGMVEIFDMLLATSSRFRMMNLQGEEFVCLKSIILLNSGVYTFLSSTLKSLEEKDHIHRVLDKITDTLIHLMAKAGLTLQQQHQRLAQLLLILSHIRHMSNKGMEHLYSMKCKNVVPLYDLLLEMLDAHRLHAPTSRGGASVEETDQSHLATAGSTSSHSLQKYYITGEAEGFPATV
endpoint name: IC50 (nM)
Please give a number only; it is taken to be in nM.

Prompt: Return IC50 measured with UniProt:P03372 given this compound: CN(C)CCOc1ccc(/C(=C(/CCN=[N+]=[N-])c2ccccc2)c2ccc(O)cc2)cc1
Response: 1

* * *

biological target: Estrogen-related receptor gamma (Homo sapiens); experiment: Displacement of [3H]4-OHT from ERRgamma at 3 uM
Sequence (P62508 whole entry): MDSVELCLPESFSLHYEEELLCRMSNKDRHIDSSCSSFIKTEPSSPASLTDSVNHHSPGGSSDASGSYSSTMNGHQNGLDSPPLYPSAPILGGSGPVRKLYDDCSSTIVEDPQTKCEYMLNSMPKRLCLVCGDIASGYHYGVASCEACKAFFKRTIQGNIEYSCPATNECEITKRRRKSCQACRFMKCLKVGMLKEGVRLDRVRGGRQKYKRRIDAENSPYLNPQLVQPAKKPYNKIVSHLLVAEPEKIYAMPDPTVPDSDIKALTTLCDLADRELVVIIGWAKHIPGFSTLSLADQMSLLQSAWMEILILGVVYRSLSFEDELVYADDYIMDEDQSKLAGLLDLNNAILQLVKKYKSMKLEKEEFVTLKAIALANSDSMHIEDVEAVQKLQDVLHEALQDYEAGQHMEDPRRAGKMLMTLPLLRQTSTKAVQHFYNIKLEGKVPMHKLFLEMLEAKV
endpoint name: IC50

CNCCC/C(=C(\c1ccc(O)cc1)c1ccc(OCCN(C)C)cc1)c1ccccc1; Not Active
CC(=O)NCCC/C(=C(\c1ccc(O)cc1)c1ccc(OCCN(C)C)cc1)c1ccccc1; Not Active
CN(C)CCC/C(=C(\c1ccc(O)cc1)c1ccc(OCCN(C)C)cc1)c1ccccc1; Not Active
CN(C)CCOc1ccc(/C(=C(/CCCC(=O)O)c2ccccc2)c2ccc(O)cc2)cc1; Not Active
